Could you please report measured beta-galactosidase activity (Miller units) for the items listed next?
- TARGET_ENTITY: the molecule itself
- PROTOCOL_TEXT: two-hybrid; bacterial two hybrid system (BACTH) based on adenylate cyclase T18/T25 fusions in E. coli BTH101; X-gal/IPTG indicator plates at 30 °C for 48 h; beta-galactosidase activity with ONPG in Miller units (Mu)

PROTEIN	RESULT_VALUE
CotE, adenylate cyclase T18/T25 hybrid (natural protein, Bacillus subtilis, UniProt P14016 1-181, looked up, CotE, spore coat morphogenetic protein of Bacillus subtilis; gene amplified from genomic DNA; also called CotE-T25; T25-CotE; source: bacterial two-hybrid fusion, E. coli BTH101; not shown: T18 or T25 domain of adenylate cyclase, N-terminal or C-terminal (by the plasmid combination), kept) MSEYREIITKAVVAKGRKFTQCTNTISPEKKPSSILGGWIINHKYDAEKIGKTVEIEGYYDINVWYSYADNTKTEVVTERVKYVDVIKLRYRDNNYLDDEHEVIAKVLQQPNCLEVTISPNGNKIVVQAEREFLAEVVGETKVVVEVNPDWEEDDEEDWEDELDEELEDINPEFLVGDPEE	360 Mu
YncD (spore alanine racemase), adenylate cyclase T18/T25 hybrid (natural protein, Bacillus subtilis, UniProt P94494 1-394, looked up, YncD, spore alanine racemase of Bacillus subtilis; gene amplified from genomic DNA of strain PY79; Cloned into pUT18, pUT18C, pKT25 and pKNT25; also called T18-YncD; YncD-T18; source: bacterial two-hybrid fusion, E. coli BTH101; not shown: T18 or T25 domain of adenylate cyclase, N-terminal or C-terminal (by the plasmid combination), kept) MIKLCREVWIEVNLDAVKKNLRAIRRHIPHKSKIMAVVKANGYGHGSIEVARHALEHGASELAVASVEEGIVLRKAGITAPILVLGFTSLSCVKKSAAWNITLSAFQVDWMKEANEILEKEASANRLAIHINVDTGMGRLGVRTKEELLEVVKALKASKFLRWTGIFTHFSTADEPDTTLTKLQHEKFISFLSFLKKQGIELPTVHMCNTAAAIAFPEFSADMIRLGIGLYGLYPSAYIKQLNLVKLEPALSLKARIAYVKTMRTEPRTVSYGATYIAEPNEVIATLPIGYADGYSRALSNRGFVLHRGKRVPVAGRVTMDMIMVSLGENGEGKQGDEVVIYGKQKGAEISVDEVAEMLNTINYEVVSTLSRRIPRFYIRDGEIFKVSTPVLYV	220 Mu

Now for the protein whose beta-galactosidase activity (Miller units) we want.
response.value for SpoVE, adenylate cyclase T18/T25 hybrid (natural protein, Bacillus subtilis, UniProt P07373 1-366, looked up, SpoVE, SEDS family membrane protein essential for cortex synthesis, Bacillus subtilis; gene amplified from genomic DNA; also called SpoVE–T18; T25–SpoVE; source: bacterial two-hybrid fusion, E. coli BTH101; not shown: T18 or T25 domain of adenylate cyclase, N-terminal or C-terminal (by the plasmid combination), kept) MTTKKTSPDLLLVIITLLLLTIGLIMVYSASAVWADYKFDDSFFFAKRQLLFAGIGVIAMFFIMNVDYWTWRTWSKLLMVICFFLLVLVLIPGVGMVRNGSRSWIGVGAFSIQPSEFMKLAMIAFLAKFLSEKQKNITSFRRGFVPALGIVFSAFLIIMCQPDLGTGTVMVGTCIVMIFVAGARIAHFVFLGLIGLSGFVGLVLSAPYRIKRITSYLNPWEDPLGSGFQIIQSLYAVGPGGLFGMGLGQSRQKFFYLPEPQTDFIFAILSEELGFIGGTLILLLFSVLLWRGIRIALGAPDLYGSFVAVGIISMIAIQVMINIGVVTGLIPVTGITLPFLSYGGSSLTLMLMAVGVLLNVSRYSRY (field: beta-galactosidase activity (Miller units)) = ≤ 360 Mu
